Test: folding stability dG unfold from chymotrypsin proteolysis; higher = more stable
property name: folding stability dG unfold (kcal/mol)
Quick note: give the figure in kcal/mol, leave out the unit.

In one line, give reported folding stability dG unfold of the entry SAGGSAEPLVYELPDGTVVLLPPTTAVVYHRLSDGRVVVVGLEVDDPPDPEKALARARAVVEALPDSAGGSA [r15_748_TrMRF] .
1.6

In one line, give reported folding stability dG unfold of the entry SAGGSAGGSPVFESPEQAKAFLDNVPADSTVLIAVKNPETGEWQLFVVKVPPKRPVGYPGDKDSAGGSAGGS [r12_393_TrMRF] .
1.79

In one line, give reported folding stability dG unfold of the entry SAGGMTIELTIVAETEEEAEKAAEELARKLAELYPDLKVKVTVEKVEVKDEETGKTYLVYKVRIEIEPSAGG [r13_545_TrROS_Hall] .
4.96

In one line, give reported folding stability dG unfold of the entry SAGGKTISIEFYMPPGEPPPSIEEIAKELFPGYKDIKIKNIEIEDVEPDPDNGMKYVRVSFTIEVEPPSAGG [r13_10_TrROS] .
3.42

In one line, give reported folding stability dG unfold of the entry SAGGKFKIVKIEVEEKTVKVKNKDGKIEKKKVKVIKVKIYKDGKLIKEVTFKSKEDMLNALKELLKKSAGGS [r8_21_TrROS_Hall] .
4.53

In one line, give reported folding stability dG unfold of the entry SAGGSAGGSAGGPDAAPSAVREYVLVTVPVYAENGTPLGPVTVVAPASVSLAAVADAVFNSAGGSAGGSAGG [r7_109_TrMRF] .
0.368

In one line, give reported folding stability dG unfold of the entry SAGMTITLDGVEITVERVRDEETGEWYYRVTVTVTTEDGEKVTITVTVPEGMTPEQVEALARELAEALASAG [r5_704_TrROS_Hall] .
4.37

In one line, give reported folding stability dG unfold of the entry SAGGSAGGSMRVRFLVTEPGLGPETAALRVERRLLEEYPVRVKGVRVRTRPDGGYLVVVEVEPSAGGSAGGS [r12_781_TrMRF] .
1.03

In one line, give reported folding stability dG unfold of the entry SAGGSAGGSKPNEIKIKKIKIEVKIKKKKVDKEKGEEIYEIEEVKIEIEEITLSKEELEKLLKSAGGSAGGS [r12_723_TrROS_Hall] .
2.06

In one line, give reported folding stability dG unfold of the entry SAGGSAGGSAGGSGNPVVRVFEFDDYIAVVTFNPGDGSVEVLSVGKVPPAAIPGSPELSSAGGSAGGSAGGS [r4_21_TrMRF] .
1.16

In one line, give reported folding stability dG unfold of the entry SAGGSDKLYIRNPDHTIEIDEVKEPPDGEKYVRIRHEPPDGKEKEHEFPPDELADKFGLPPDNIEISAGGSA [r2_262_TrROS] .
-0.217

In one line, give reported folding stability dG unfold of the entry SAGGSAGGMRLVVEDFDEEEMEEVERRVREFAEEHDVEVDIYRRRRPDGRVVLVVEIRPKEDLPSAGGSAGG [r6_906_TrMRF] .
3.02

In one line, give reported folding stability dG unfold of the entry SAGGMVIVVKTKEEAKKALEELLKKLFPDLKIKKIEIKEVEVEVKKKDGKKVKKKKFIVVKIEIEKESAGGS [r16_267_TrROS_Hall] .
3.38

In one line, give reported folding stability dG unfold of the entry SSDIKIEIDIERNDDGYLTFTIEIRHPDPQQLVDAAKEIILELFPPGVNIDVEPHPDGWVKAPIMFPLPKSA [r9_646_TrROS] .
1.63
